Hey, just so you know, these numbers are from PubChem BioAssay (NCI).

tested on: SK-MEL-5 melanoma; assay: NCI-60 one-dose screen, 48 h; details: 10 µM unless noted
This is part of a sample that, as a whole, favours compounds with a hit. Of some 83,000 tested, about 20% had one in any assay. Calls of active or inactive are those of the source. How the source made its calls: active means growth percent below 10; inactive means the rest.
Give one outcome, nothing more. List: active, inactive

Prompt: Recorded test call requested for O=C1Nc2ccccc2/C1=C/c1cccn1CCCCCn1c2ccccc2c(=O)c2ccccc21
Completion: inactive

Prompt: Record lookup: outcome of this test for C=C(C)[C@@H]1CC[C@]2(C(=O)O)CC[C@]3(C)[C@H](CC[C@@H]4[C@@]5(C)CCC(N)C(C)(C)[C@@H]5CC[C@]43C)[C@@H]12 (stereo partly specified) ?
Completion: inactive

Prompt: // return assay outcome for COc1cc(-c2[nH]ncc2Nc2ccc(Cl)cc2)cc(OC)c1OC
Completion: inactive

Prompt: Would you mind telling me which call this test gave NC1=CC(=O)c2cccnc2C1=O ?
Completion: active

Prompt: # fetch the recorded call for Cc1c(CC(=O)OCCO)cc(-c2ccc(Cl)cc2)n1-c1ccccc1 here
Completion: inactive

Prompt: Please share the test call associated with O=C(N/N=C/c1ccc(O)cc1O)c1cccc(Nc2ccnc(C(F)(F)F)c2)c1 .
Completion: inactive

Prompt: Returns: the outcome recorded for N#Cc1ccccc1OCC(=O)Nc1nc2c(s1)COc1ccccc1-2 in this assay.
Completion: inactive

Prompt: Test call, this compound: Nc1nc(CSc2n[nH]c(N)n2)nc(Nc2ccccc2)n1
Completion: inactive

Prompt: Could you kindly confirm the outcome this assay logged for O=C(NNC(=S)Nc1ccccc1)c1ccncc1 ?
Completion: inactive

Prompt: Tell me the assay call for O=C1/C(=C/c2ccc(-c3ccccc3C(F)(F)F)o2)SC(=S)N1CCc1ccc(O)cc1 please.
Completion: inactive

Prompt: Kindly provide the recorded test outcome for the following compound: O=[N+]([O-])c1ccc2[nH]c3nccc(NCc4cccc(Cl)c4)c3c2c1
Completion: inactive

----------
System: OVCAR-5 ovarian
Assay: NCI-60 one-dose screen, 48 h
Details: 10 µM unless noted
Description: Growth inhibition of the OVCAR-5 human tumor cell line is measured as a screen for anti-cancer activity. Cells are grown in 96 well plates and exposed to the test compound for 48 hours. Compounds are tested at a single concentration, which is 10^-5 M for most compounds. The reported endpoint is percent growth (GI% or GIPRCNT), where numbers from 0 - 100% represent growth inhibition, and numbers from -100% - 0 represent cell death. For example, a value of 40 represents 60% growth inhibition. […]
Compounds without any hit were thinned out: in the full panel of roughly 83,000, 20% have a hit. Active and inactive are the calls of the source. Rule for the calls: active = growth percent below 10; inactive = the rest.
Give one outcome, nothing more. List: yes (1) for active, no (0) for inactive

Prompt: Just curious, what result did N#Cc1ccccc1OCC(=O)Nc1nc2c(s1)COc1ccccc1-2 get here?
Completion: no (0)

Prompt: Write down the call the test reported for this molecule. Item: O=C(N=Nc1c(O)[nH]c2ccccc12)Nc1ccccc1Cl
Completion: no (0)

Prompt: Hi team, can someone confirm the assay call for Nc1n[nH]c2cccc(C#Cc3cccc(C(=O)Nc4ccc(CN5CCOCC5)c(C(F)(F)F)c4)c3)c12 ?
Completion: no (0)

Prompt: Assay outcome for NNCCc1ccccc1 : what was it?
Completion: no (0)

Prompt: Hi, sorry to bother you, what did the test record for O=C(CCCOc1ccc(Br)cc1)Nc1ncc(Cc2ccc(F)cc2)s1 ?
Completion: no (0)

Prompt: Identify the outcome logged in this assay for the molecule shown: C=C1CC[C@@H]2[C@](C)(COC(C)=O)[C@H](OC(C)=O)CC[C@@]2(C)[C@@H]1CC(Nc1ccc(S(=O)(=O)Nc2nccs2)cc1)C1=CCOC1=O (stereo not given in full)
Completion: yes (1)

Prompt: Check the results log: what was the call for c1ccc(Cc2cccc[n+]2C(c2ccccc2)c2ccccc2)cc1 ?
Completion: no (0)

Prompt: // outcome(item) with item = c1ccc(-c2cc(-c3cc(-c4ccccc4)on3)no2)cc1
Completion: no (0)

Prompt: What did this assay record as the result for O=C(Nc1ccc2ccccc2c1)c1cc2ccccc2cc1O ?
Completion: no (0)

Prompt: Check the results log: what was the call for COc1cc(NS(=O)(=O)C(C)C)cc(-c2cc(-c3ccc(N4CCNCC4)cc3)cnc2N)c1 ?
Completion: no (0)
